From: patent US20260193366A1

tgt: T1, cynomolgus monkey IL-4Rα (cynomolgus monkey, UniProt P24394 26-231 (human entry), limits assumed)
T1 construct: also called Cyno IL-4Rα; cyIL-4Rα
T1 chain: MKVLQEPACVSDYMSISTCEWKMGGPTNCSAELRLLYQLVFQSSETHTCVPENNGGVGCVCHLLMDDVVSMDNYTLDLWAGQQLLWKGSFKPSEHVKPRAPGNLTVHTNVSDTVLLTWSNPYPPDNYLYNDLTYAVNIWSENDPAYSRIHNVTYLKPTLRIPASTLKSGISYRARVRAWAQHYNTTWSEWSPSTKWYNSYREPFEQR
experiment_summary: SPR, Carterra LSA;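 further: antibodies captured on an anti-human Fc sensor chip, antigen injected at several concentrations, association and dissociation rates fitted with a 1:1 Langmuir model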
Can you tell me pKd for the items I'm about to list?
Answers are plain numbers, as −log10 of the molar value.

binder: Construct 6 (mAb415) (antibody, IgG4, V domains shown, VH/VL only) VH: EVQLVESGGGLEQPGGSLRLSCAGSGFTFRDFAMTWVRQAPGKGLEWVSSISGSGDNIYYADSVKGRFTISRDNSKNTLYLQMNSLRAEDTAVYYCAKDRLSVTVRPRYYGLDVWGQGTTVTVSS VL: DIVMTQSPLSLPVTPGEPASISCRSSQGLLYSIGYNYVDWYLQKSGQSPQLLIYLGNKRASGVPDRFSGSGSGTDFTLKISRVEAEDVGFYYCMQSLQTPYTFGQGTKLEIK
pKd: 7.23
//
binder: Construct 41 (mAb478) (antibody, IgG4, V domains shown, VH/VL only) VH: EVQLVESGGGLEQPGGSLRLSCAGSGFTFRDFAMTWVRQAPGKGLEWVSSISGGGGNTYYADSVKGRFTISRDNSKNTLYLQMNSLRAEDTAVYYCAKDRVSITIRPRYYGLDVWGQGTTVTVSS VL: DIVMTQSPLSLPVTPGEPASISCTASQSLLYSIGYNYVDWYLQKSGQSPQLLIYLGNKRASGVPDRFSGSGSGTDFTLKISRVEAEDVGFYYCMQAYNSPYTFGQGTKLEIK
pKd: 6.61
//
binder: Construct 30 (mAb439) (antibody, IgG4, V domains shown, VH/VL only) VH: EVQLVESGGGLEQPGGSLRLSCAGSGFTFRDYAMTWVRQAPGKGLEWVSSISGSGGNTYYADSVKGRFTISRDNSKNTLYLQMNSLRAEDTAVYYCAKDRLSITIRPRYYGLDVWGQGTTVTVSS VL: DIVMTQSPLSLPVTPGEPASISCRSSQSLLYSNRNNYLDWYLQKSGQSPQLLIYSASIRASGVPDRFSGSGSGTDFTLKISRVEAEDVGFYYCMQAFQAPYTFGQGTKLEIK
pKd: 6.89

--- query ---
Prompt: Would you kindly share the measured pKd for Construct 31 (mAb443) (antibody, IgG4, V domains shown, VH/VL only) VH: EVQLVESGGGLEQPGGSLRLSCAGSGFTFRDFAMTWVRQAPGKGLEWVSSISGSGGNIYYADSVKGRFTISRDNSKNTLYLQMNSLRAEDTAVYYCAKDRLSVTVRPRYYGLDVWGQGTTVTVSS VL: DIVMTQSPLSLPVTPGEPASISCRSSQSLLYSNGYNYLDWYLQKSGQSPQLLIYLGSNRASGVPDRFSGSGSGTDFTLKISRVEAEDVGFYYCMQALQAPYTFGQGTKLEIK ?
Response: 6.38
